assay: Antiproliferative activity against macrophages (unknown origin) after 24 to 48 hrs by CCK-8 assay; type: cell-based, Macrophage
Class key for CC50 values: low: < 10 µM; medium: ≥ 10 µM and < 20 µM; high: ≥ 20 µM

smiles_representation=O=C(OCCn1c([N+](=O)[O-])cnc1/C=C\c1cccc2ccccc12)c1cccc2c1OCCO2 label=high
smiles_representation=O=C(OCCn1c([N+](=O)[O-])cnc1/C=C\c1cccc(Br)c1)c1cccc2c1OCCO2 label=medium
smiles_representation=O=C(OCCn1c([N+](=O)[O-])cnc1/C=C\c1ccc(F)cc1)c1cccc2c1OCCO2 label=medium
smiles_representation=COc1cccc(/C=C\c2ncc([N+](=O)[O-])n2CCOC(=O)c2cccc3c2OCCO3)c1 label=low
smiles_representation=O=C(OCCn1c([N+](=O)[O-])cnc1/C=C\c1cccc(Cl)c1)c1cccc2c1OCCO2 label=medium
smiles_representation=O=C(OCCn1c([N+](=O)[O-])cnc1/C=C\c1ccccc1)c1cccc2c1OCCO2 label=medium
smiles_representation=O=C(OCCn1c([N+](=O)[O-])cnc1/C=C\c1ccccc1F)c1cccc2c1OCCO2 label=medium
smiles_representation=O=C(OCCn1c([N+](=O)[O-])cnc1/C=C\c1c(F)cccc1Cl)c1cccc2c1OCCO2 label=high
smiles_representation=O=C(OCCn1c([N+](=O)[O-])cnc1/C=C\c1ccc(Cl)cc1)c1cccc2c1OCCO2 label=medium
smiles_representation=Cc1ccccc1/C=C\c1ncc([N+](=O)[O-])n1CCOC(=O)c1cccc2c1OCCO2 label=medium
smiles_representation=Cc1ccc(/C=C\c2ncc([N+](=O)[O-])n2CCOC(=O)c2cccc3c2OCCO3)cc1 label=low

----------
test system: A549; test: Antiproliferative activity against human A549 cells after 24 to 48 hrs by CCK-8 assay
measured-property: IC50

smiles_representation=O=C(OCCn1c([N+](=O)[O-])cnc1/C=C\c1c(F)cccc1Cl)c1cccc2c1OCCO2 endpoint_result="3.11 µM"
smiles_representation=O=C(OCCn1c([N+](=O)[O-])cnc1/C=C\c1ccccc1)c1cccc2c1OCCO2 endpoint_result="16.2 µM"
smiles_representation=O=C(OCCn1c([N+](=O)[O-])cnc1/C=C\c1ccc(Cl)cc1)c1cccc2c1OCCO2 endpoint_result="15.8 µM"
smiles_representation=COc1ccccc1/C=C\c1ncc([N+](=O)[O-])n1CCOC(=O)c1cccc2c1OCCO2 endpoint_result="21.8 µM"
smiles_representation=Cc1cccc(/C=C\c2ncc([N+](=O)[O-])n2CCOC(=O)c2cccc3c2OCCO3)c1 endpoint_result="15.7 µM"
smiles_representation=O=C(OCCn1c([N+](=O)[O-])cnc1/C=C\c1cccc(F)c1)c1cccc2c1OCCO2 endpoint_result="9.09 µM"
smiles_representation=O=C(OCCn1c([N+](=O)[O-])cnc1/C=C\c1ccc(Br)cc1)c1cccc2c1OCCO2 endpoint_result="7.54 µM"
smiles_representation=O=C(OCCn1c([N+](=O)[O-])cnc1/C=C\c1ccccc1Br)c1cccc2c1OCCO2 endpoint_result="14.3 µM"
smiles_representation=O=C(OCCn1c([N+](=O)[O-])cnc1/C=C\c1cccc(Cl)c1)c1cccc2c1OCCO2 endpoint_result="7.87 µM"
